assay: Stat Signaling Pathway (AID 446); conditions: ME-180 (cervical carcinoma) SIE beta-lactamase reporter, IL-6 stimulated, 5 h; at 17.2 µM (top of the series);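 note: ME-180 cervical cancer cells given 40 pM IL-6 alongside compound; SIE-controlled beta-lactamase reporter measured as 460/530 nm FRET emission ratio; % is set by controls: 0 for no effect and ±100 for the full control effect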
Results filed as inconclusive are left out.
observed.property: activity, negative = inhibition (%)
Respond numerically; units are % and should not be typed.

Bench note: what activity, negative = inhibition did "CC/C(=C(\c1ccccc1)c1ccc(OCCN(C)C)cc1)c1ccccc1" show?
14.2

Try this molecule too: "C[C@@H](O)[C@H]1C(=O)N2C(C(=O)O)=C(S[C@@H]3CN[C@H](C(=O)N(C)C)C3)[C@H](C)[C@H]12"
-18.6

Try this molecule too: CC(C)(C)c1ccc(C(O)CCCN2CCC(C(O)(c3ccccc3)c3ccccc3)CC2)cc1 (centres undefined)
-1.77

Try this molecule too: "CCN(CC)CCOC(=O)c1ccc(N)cc1"
13

Try this molecule too: "Nc1ncnc2c1ncn2[C@@H]1O[C@@H](CO)[C@H](O)[C@H]1O"
-10

Try this molecule too: COc1ccc2c3c1OC1C[C@@H](O)C=C[C@@]31CCN(C)C2 (some centres undefined)
12.6

Try this molecule too: "COc1ccccc1N1CCN(CCCNc2cc(=O)n(C)c(=O)n2C)CC1"
-0.455

Try this molecule too: CC(C)NCC(O)COc1cccc2[nH]ccc12 (centres undefined)
24.1

Try this molecule too: "O=C(O)CCc1nc(-c2ccccc2)c(-c2ccccc2)o1"
-0.803

---

experiment: Cell Viability - HepG2 (AID 433); conditions: qHTS;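 note: cells exposed to compound for 40 hours; potency for ATP loss meaning cytotoxicity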
Records with an inconclusive call do not appear. Activity calls are given as the source filed them. Calls come from the whole dose curve.
Your reply should match one of these outcome classes. active, inactive

Given "O=C(O)Cc1cccc2ccccc12" , state the outcome it received in this test.
inactive

Try this molecule too: "CCn1cc(C(=O)O)c(=O)c2ccc(C)nc21"
inactive

Try this molecule too: "CC(=O)c1ccc(S(=O)(=O)NC(=O)NC2CCCCC2)cc1"
inactive

Try this molecule too: "CC/C(=C(\c1ccccc1)c1ccc(OCCN(C)C)cc1)c1ccccc1"
active

Try this molecule too: "CC(=O)O[C@]1(C(C)=O)CC[C@H]2[C@@H]3C=C(Cl)C4=CC(=O)[C@@H]5C[C@@H]5[C@]4(C)[C@H]3CC[C@@]21C"
inactive

Try this molecule too: CN(C)CCC(c1ccccc1)c1ccccn1 (stereo not drawn)
inactive

Try this molecule too: "CCCNC(=O)NS(=O)(=O)c1ccc(Cl)cc1"
inactive

Try this molecule too: "O=c1c(-c2ccc(O)cc2)coc2cc(O)ccc12"
inactive

---

assay: qHTS Screen of the MIPE 4.0 Collection Against Ewings Sarcoma (TC32) (AID 1259256); conditions: TC32 Ewing sarcoma viability, CellTiter-Glo, 48 h; series mostly up to 45.8 µM; note: nearly all actives have a fitted effect of over 45% in size
Inconclusive results are not listed. Active and inactive are the calls of the source. Calls follow the shape of the dose curve; as a rule, active = well fitted inhibition curve with a large enough effect; inconclusive = small, poorly fitted or top-dose-only effect; inactive = no such curve, though single readings can be large or run the other way.
Your reply should match one of these outcome classes. active, inactive

Given "COc1ccc(Cc2ccc(NC(N)=O)cc2)cc1-c1cccc(Cl)c1" , state the outcome it received in this test.
active

Try this compound too: "O=C1C(Cl)=C(NCCN2CCOCC2)C(=O)c2ncccc21"
active

Try this compound too: "CC=CC[C@@H](C)C(=O)[C@H]1C(=O)N[C@@H](C(C)C)C(=O)N(C)CC(=O)N(C)[C@@H](CC(C)C)C(=O)N[C@@H](C(C)C)C(=O)N(C)[C@@H](CC(C)C)C(=O)N[C@@H](C)C(=O)N[C@H](C)C(=O)N(C)[C@@H](CC(C)C)C(=O)N(C)[C@@H](CC(C)C)C(=O)N(C)[C@@H](C(C)C)C(=O)N1C"
active

Try this compound too: "CN(C)c1cc(NC(=O)CNC(C)(C)C)c(O)c2c1C[C@@H]1C[C@H]3[C@H](N(C)C)C(=O)C(C(N)=O)=C(O)[C@@]3(O)C(=O)C1=C2O"
inactive

Try this compound too: "COc1cc2ncnc(-n3nc(-c4ccccn4)nc3N)c2cc1OC"
active

Try this compound too: "Cn1c(N2CCCCS2(=O)=O)nc(C(=O)NCc2ccc(F)cc2)c(O)c1=O"
active

Try this compound too: C=C1C(=O)OC(CCCCCCCC)C1C(=O)O (centres undefined)
active

Try this compound too: O=c1c(-c2ccc(O)cc2)coc2cc(OC3O[C@H](CO)[C@H](O)[C@H](O)[C@H]3O)cc(O)c12 (some centres undefined)
active

Try this compound too: "O=c1ccn([C@@H]2O[C@H](CO)[C@H](O)[C@H]2O)c(=O)[nH]1"
inactive
